Just for reference, patent US20130324542A1 is where these values come from.

So I've got a bunch of compounds here, and I need their inhibition at 1 µM values.
tested on: NIH3T3/TPR-Met cells; test: Cell proliferation mediated by c-Met, SRB assay, NIH3T3/TPR-Met cells; assay type: cell-based; conditions: Mus musculus, NIH3T3; 1 μM, 72 h; read-out: inhibition rate (%) on proliferation of NIH3T3/TPR-Met cells
Numbers only, in %.

Past entries and their recorded results:
FC(F)(c1ccc2ncccc2c1)c1nnc2ncc(-c3ccc(OCc4ccccc4)cc3)nn12: 83.5
COc1cccc(-c2cnc3nnc(COc4ccnc5ccccc45)n3n2)c1: 20.9
c1ccc(-c2cnc3nnc(COc4ccnc5ccccc45)n3n2)cc1: 63.9
COc1ccc2c(OCc3nnc4ncc(-c5ccc(Cl)c(Cl)c5)nn34)ccnc2c1: 78.7
Oc1ccc(-c2cnc3nnc(COc4ccnc5ccccc45)n3n2)cc1: 5.3
COC(=O)c1ccc(-c2cnc3nnc(COc4ccnc5cc(OC)c(OC)cc45)n3n2)cc1: 5.6
CCCn1cc(-c2cnc3nnc(Cc4c[nH]c5ccccc45)n3n2)cn1: 5
Cc1[nH]c(/C=C2\C(=O)Nc3ccc(S(=O)(=O)N(C)c4cccc(Cl)c4)cc32)c(C)c1C(=O)N1CCN(C)CC1 [SU11274, reference compound]: 8.5

Query string: Provide value of inhibition at 1 µM for this record tested with NIH3T3/TPR-Met cells: CC(C)(C)OC(=O)N1CCC(n2cc(-c3cnc4nnc(C(F)(F)c5ccc6ncccc6c5)n4n3)cn2)CC1
Result string: 81.2

----------
What inhibition at 50 µM was measured for each of the following?
system: NIH3T3/TPR-Met cells; test: Cell proliferation mediated by c-Met, SRB assay, NIH3T3/TPR-Met cells; assay type: cell-based; conditions: Mus musculus, NIH3T3; 50 μM, 72 h; read-out: inhibition rate (%) on proliferation of NIH3T3/TPR-Met cells
One number for each entry, in %.

COc1ccc(-c2cnc3nnc(COc4ccnc5ccccc45)n3n2)cc1: 88.5

For each of the compounds below, state inhibition at 50 µM.
1. COc1cc2nccc(OCc3nnc4ncc(-c5ccc(OCc6ccccc6)cc5)nn34)c2cc1OC
2. Oc1cccc(-c2cnc3nnc(COc4ccnc5ccccc45)n3n2)c1
3. FC(F)(c1ccc2ncccc2c1)c1nnc2ncc(-c3cnn(C4CCNCC4)c3)nn12
4. CC(C)(C)OC(=O)N1CCC(n2cc(-c3cnc4nnc(C(F)(F)c5ccc6ncccc6c5)n4n3)cn2)CC1
5. COc1ccc2c(OCc3nnc4ncc(-c5ccc([N+](=O)[O-])cc5)nn34)ccnc2c1
6. COc1ccc2c(OCc3nnc4ncc(-c5cnn(C)c5)nn34)ccnc2c1
7. Oc1ccc(-c2cnc3nnc(COc4ccnc5ccccc45)n3n2)cc1

Result string:
1: 97; 2: 80.7; 3: 85.1; 4: 86.5; 5: 82.3; 6: 91.9; 7: 70.6

----------
target: c-Met tyrosine kinase (Homo sapiens, UniProt P08581)
Sequence (P08581 25-1390): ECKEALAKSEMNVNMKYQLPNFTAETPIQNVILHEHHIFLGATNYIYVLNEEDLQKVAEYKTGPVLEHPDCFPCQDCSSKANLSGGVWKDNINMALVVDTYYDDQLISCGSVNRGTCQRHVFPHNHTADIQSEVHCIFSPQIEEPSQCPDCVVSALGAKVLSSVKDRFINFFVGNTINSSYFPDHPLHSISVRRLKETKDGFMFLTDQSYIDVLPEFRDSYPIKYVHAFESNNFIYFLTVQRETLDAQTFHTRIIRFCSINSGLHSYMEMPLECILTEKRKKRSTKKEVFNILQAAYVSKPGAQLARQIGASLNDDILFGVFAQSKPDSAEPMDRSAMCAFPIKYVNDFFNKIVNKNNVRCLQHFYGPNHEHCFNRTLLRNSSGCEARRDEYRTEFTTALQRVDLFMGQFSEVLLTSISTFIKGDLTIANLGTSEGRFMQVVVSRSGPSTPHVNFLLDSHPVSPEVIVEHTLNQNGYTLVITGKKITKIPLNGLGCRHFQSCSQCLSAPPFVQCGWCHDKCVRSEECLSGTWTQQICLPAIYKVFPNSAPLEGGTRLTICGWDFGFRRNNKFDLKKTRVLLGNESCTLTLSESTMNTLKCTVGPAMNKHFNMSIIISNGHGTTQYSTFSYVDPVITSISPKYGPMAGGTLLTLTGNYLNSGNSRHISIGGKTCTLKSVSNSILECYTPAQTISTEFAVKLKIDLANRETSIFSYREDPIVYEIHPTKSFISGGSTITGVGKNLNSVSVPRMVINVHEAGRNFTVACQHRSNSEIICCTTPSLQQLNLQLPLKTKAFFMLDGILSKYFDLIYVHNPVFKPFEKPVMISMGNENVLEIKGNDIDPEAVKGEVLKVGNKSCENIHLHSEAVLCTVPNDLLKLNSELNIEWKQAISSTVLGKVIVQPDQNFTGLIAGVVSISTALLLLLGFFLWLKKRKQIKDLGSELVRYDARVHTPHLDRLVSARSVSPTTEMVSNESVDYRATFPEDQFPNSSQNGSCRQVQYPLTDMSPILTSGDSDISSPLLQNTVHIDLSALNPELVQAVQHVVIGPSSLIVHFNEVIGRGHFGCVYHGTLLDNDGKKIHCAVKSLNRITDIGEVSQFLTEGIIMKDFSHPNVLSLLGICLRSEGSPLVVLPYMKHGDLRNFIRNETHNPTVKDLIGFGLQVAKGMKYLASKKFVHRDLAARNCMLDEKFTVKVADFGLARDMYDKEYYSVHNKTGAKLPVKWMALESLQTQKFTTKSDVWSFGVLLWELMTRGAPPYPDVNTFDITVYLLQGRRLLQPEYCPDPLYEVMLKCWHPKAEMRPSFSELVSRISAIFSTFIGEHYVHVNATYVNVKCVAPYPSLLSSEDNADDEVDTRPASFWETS
Please use the following IC50 ranges when assigning a class: lower segment: < 0.8 nM; middle segment: ≥ 0.8 nM and < 4 nM; upper segment: ≥ 4 nM

COC(=O)c1ccc(-c2cnc3nnc(COc4ccnc5cc(OC)c(OC)cc45)n3n2)cc1: middle segment
Cc1[nH]c(/C=C2\C(=O)Nc3ccc(S(=O)(=O)N(C)c4cccc(Cl)c4)cc32)c(C)c1C(=O)N1CCN(C)CC1 [SU11274, reference compound]: upper segment
FC(F)(c1ccc2ncccc2c1)c1nnc2ncc(-c3ccc(OCc4ccccc4)cc3)nn12: middle segment
COc1ccc2c(OCc3nnc4ncc(-c5ccc(OCc6ccccc6)cc5)nn34)ccnc2c1: upper segment
COc1ccc2c(OCc3nnc4ncc(-c5cnn(C)c5)nn34)ccnc2c1: middle segment
COc1cc2nccc(OCc3nnc4ncc(-c5ccc(OCc6ccccc6)cc5)nn34)c2cc1OC: lower segment

Shifting focus to the molecule that follows.
Query string: Kindly state the category for this molecule: COc1ccc2c(OCc3nnc4ncc(-c5cccs5)nn34)ccnc2c1
Result string: upper segment

----------
system: NIH3T3/TPR-Met cells; assay: Cell proliferation mediated by c-Met, SRB assay, NIH3T3/TPR-Met cells; assay type: cell-based; details: Mus musculus, NIH3T3; 1 μM, 72 h; read-out: inhibition rate (%) on proliferation of NIH3T3/TPR-Met cells
Record form. Attribute: inhibition at 1 µM. Fill in for each entry.
Numbers only, in %.

Solved cases (4 shown):
COc1ccc(-c2cnc3nnc(COc4ccnc5ccccc45)n3n2)cc1: 29
COc1ccc2c(OCc3nnc4ncc(-c5ccc([N+](=O)[O-])cc5)nn34)ccnc2c1: 78.6
COc1ccc2c(OCc3nnc4ncc(-c5cnn(C)c5)nn34)ccnc2c1: 87.4
Fc1ccc(-c2cnc3nnc(COc4ccnc5ccccc45)n3n2)cc1: 24.6

Can you give me inhibition at 1 µM for all of these, one by one?
1. FC(F)(c1ccc2ncccc2c1)c1nnc2ncc(-c3cnn(C4CCNCC4)c3)nn12
2. Oc1cccc(-c2cnc3nnc(COc4ccnc5ccccc45)n3n2)c1
3. COc1cc2nccc(OCc3nnc4ncc(-c5ccc(OCc6ccccc6)cc5)nn34)c2cc1OC

Result string:
6
9.2
6.55

----------
Kindly state inhibition at 50 µM for each of the entries shown.
tested on: NIH3T3/TPR-Met cells; assay: Cell proliferation mediated by c-Met, SRB assay, NIH3T3/TPR-Met cells; assay type: cell-based; details: Mus musculus, NIH3T3; 50 μM, 72 h; read-out: inhibition rate (%) on proliferation of NIH3T3/TPR-Met cells
Give bare numbers, in %.

FC(F)(c1ccc2ncccc2c1)c1nnc2ncc(-c3ccc(OCc4ccccc4)cc3)nn12: 87.2
COc1cccc(-c2cnc3nnc(COc4ccnc5ccccc45)n3n2)c1: 83.9
CCCn1cc(-c2cnc3nnc(Cc4c[nH]c5ccccc45)n3n2)cn1: 67.5
Fc1ccc(-c2cnc3nnc(COc4ccnc5ccccc45)n3n2)cc1: 84.3
c1ccc(-c2cnc3nnc(COc4ccnc5ccccc45)n3n2)cc1: 78.8
Cc1[nH]c(/C=C2\C(=O)Nc3ccc(S(=O)(=O)N(C)c4cccc(Cl)c4)cc32)c(C)c1C(=O)N1CCN(C)CC1 [SU11274, reference compound]: 88.7

List reported inhibition at 50 µM for each of these molecules:
1. COc1ccc2c(OCc3nnc4ncc(-c5ccc(Cl)c(Cl)c5)nn34)ccnc2c1
2. COC(=O)c1ccc(-c2cnc3nnc(COc4ccnc5cc(OC)c(OC)cc45)n3n2)cc1

Result string:
1. 86.7
2. 82.6

----------
pIC50 data for UniProt P08581 follow.
Give bare numbers, as −log10 of the molar value.

COc1ccc2c(OCc3nnc4ncc(-c5ccc(Cl)c(Cl)c5)nn34)ccnc2c1 [II-20]: 9.15

Please state, for each entry, its recorded pIC50.
1. COc1ccc2c(OCc3nnc4ncc(-c5ccc(Br)cc5)nn34)ccnc2c1 [II-3]
2. CC(C)(C)OC(=O)N1CCC(n2cc(-c3cnc4nnc(C(F)(F)c5ccc6ncccc6c5)n4n3)cn2)CC1 [Compound I-20]

Result string:
1: 9.64; 2: 8.10

----------
biological target: c-Met tyrosine kinase (Homo sapiens, UniProt P08581)
readout.type: pIC50
Answers are plain numbers, as −log10 of the molar value.

Example entries and their recorded answers appear below.
COC(=O)c1ccc(-c2cnc3nnc(COc4ccnc5cc(OC)ccc45)n3n2)cc1: 9.11
COc1cc2nccc(OCc3nnc4ncc(-c5ccccc5)nn34)c2cc1OC: 8.54

// input: 2 compounds below; output: pIC50 for each
1. COc1ccc2c(OCc3nnc4ncc(-c5ccc([N+](=O)[O-])cc5)nn34)ccnc2c1
2. Cn1cc(-c2ccc3nnc(C(F)(F)c4ccc5ncccc5c4)n3n2)cn1 [JNJ-38877605, reference compound]

Result string:
[9.25, 9.02]
